Catalogue of molecules with associated GR80
System: Veronica hederifolia
Test: Post-emergence herbicidal activity against Veronica hederifolia compound treated as foliar application measured after 2 weeks
Assay type: functional
Assay Metric: GR80

                                 cpd_smiles     result
0  COc1cc2nc(NS(=O)(=O)c3c(Cl)cccc3Cl)nn2c(OC)n1  >1000 ppm
1  COc1ncc(C)c2nc(NS(=O)(=O)c3c(Cl)cccc3Cl)nn12    <15 ppm
2  COc1cccc(C(F)(F)F)c1S(=O)(=O)Nc1nc2c(OC)cnc(OC)n2n1   <0.2 ppm
